Parameter: melting point. Scope: all listed entries.

>>> readout_value("C[C@@]1(C(=O)O)CCC[C@]2(C)c3ccc(O)cc3CCC12 (stereo partly drawn)")
"101 to 102 °C"
>>> readout_value("C[C@@]1(C(=O)O)CCC[C@]2(C)c3ccc(OCCOC(=O)c4ccccc4C(=O)O)cc3CCC12 (stereo partly drawn)")
"72 to 73 °C"
>>> readout_value("CCOC(=O)[C@]1(C)CCC[C@]2(C)c3ccc(C(C)(C)O)cc3CCC12 (stereo partly drawn) [Compound 4a, Ethyl 15-hydroxydehydroabietate]")
"51 to 52 °C"
>>> readout_value("CC(C)(O)c1ccc2c(c1)CC[C@H]1[C@](C)(C(=O)O)CCC[C@]21C [Compound 3, 15-Hydroxydehydroabieta-18-oic acid]")
"92 to 93 °C"

// recorded melting point for C[C@@]1(C(=O)O)CCC[C@]2(C)c3ccc(OCCOC(=O)c4ccccc4)cc3CCC12 (stereo partly drawn) : 138 to 139 °C

// recorded melting point for C[C@@]1(C(=O)O)CCC[C@]2(C)c3ccc(OCCOC(=O)c4ccc5cc(C(=O)O)ccc5c4)cc3CCC12 (stereo partly drawn) : 189 to 190 °C

// recorded melting point for Cc1ccc(S(=O)(=O)OCC2(C)CCCC3(C)C4CCC(C(C)C)=CC4=CCC23)cc1 (stereo not drawn) : 67 to 68 °C

// recorded melting point for C[C@@]1(C(=O)O)CCC[C@]2(C)c3ccc(OCCOC(=O)c4ccccc4N)cc3CCC12 (stereo partly drawn) : 126 to 127 °C

// recorded melting point for CC1(C)CCCC2(C)c3ccc(O)cc3CCC12 (stereo not drawn) [Compound 14, 13-Hydroxy-8,11,13-podocarpatriene] : 145 to 146 °C
